test: gradient 5% acetonitrile 3 min, to 50% in 2 min, to 85% in 15 min, held 3 min, 100 µL/min; conditions: column: Zorbax Extend-C18 2.1 x 50 mm; eluents: water / acetonitrile, 0.1% formic acid
Item-by-item account of RP-LC retention time
# unit: s | format: bare number

Answered examples (10):
# compound, unitDescriptor, RP-LC retention time
rows = [
    ("CN(C)C(=O)/N=N/C(=O)N(C)C", "s", 597),
    ("NC(=O)C1CCC(=O)N1C1CCN(C(=O)CCC2CCCC2)CC1 (stereo not given)", "s", 566),
    ("O=C(NCc1ccccc1F)c1ccc(Cn2c(C(F)(F)F)nc3cccnc32)cc1", "s", 876),
    ("CN1C(=O)c2cccn2CC1CNS(=O)(=O)c1ccc(F)cc1 (stereo not given)", "s", 679),
    ("CCOc1ccc(-c2cc3c(=O)n(Cc4nc(-c5cccc(OCC)c5)no4)ncn3n2)cc1", "s", 1220),
    ("CS(=O)(=O)N1CCC(C(=O)Nc2ccc(F)cc2)Oc2ccc(Cl)cc21 (stereo not given)", "s", 903),
    ("O=S(=O)(c1cc(-c2nnc(C3CC3)o2)co1)N1CCN(c2cccc(Cl)c2)CC1", "s", 1060),
    ("O=C(Cn1cccc(-c2nc(-c3ccccc3)no2)c1=O)Nc1ccccc1Cl", "s", 885),
    ("O=C1CSc2ccc(S(=O)(=O)N3CCC(C(=O)NC4CC4)CC3)cc2N1", "s", 662),
    ("Cc1nc(CC(=O)Nc2ccc(F)cc2F)sc1C(=O)NC1CC1", "s", 696),
]

Would you kindly share the measured RP-LC retention time for COc1ccc(NC(=O)N2CC3CCCN3c3ccccc32)cc1 (stereo not given) ?
985

What would you report for `Cc1ccc(C)c(OCc2nc(CC(=O)Nc3nc(-c4ccc(F)cc4)c(C)s3)cs2)c1` ?
1310

What would you report for `O=C(c1nnc(-c2csc(S(=O)(=O)N3CCN(c4ncccn4)CC3)c2)o1)N1CCCC1` ?
913

What would you report for `COc1ccccc1N1CCN(Cc2nc3nc(C)cc(N4CCOCC4)n3n2)CC1` ?
602

What would you report for `CSc1cccc(NC(=O)c2cn3c(n2)CSCC3)c1` ?
763

What would you report for `CCNc1nc(NCC)nc(-n2cnc(SC)n2)n1` ?
718

What would you report for `O=C(Nc1ccc2ncccc2c1)Nc1ccc2ncccc2c1` ?
604

What would you report for `CCc1noc2nc(CCC(=O)NCc3ccco3)nc(N3CCCCC3)c12` ?
829

What would you report for `CCN(CC)C(=O)c1ccc(-c2nnc3ccc(NC(=O)C4CC4)cn23)cc1` ?
699

What would you report for `Cc1cc(C)cc(C(=O)N2CCN(c3cc(=O)n(C)c(=O)n3C)CC2)c1` ?
691

====

test: gradient 5% acetonitrile 3 min, to 50% in 2 min, to 85% in 15 min, held 3 min, 100 µL/min; conditions: column: Zorbax Extend-C18 2.1 x 50 mm; eluents: water / acetonitrile, 0.1% formic acid
The threshold is 700 s. Values of RP-LC retention time beneath it are tagged Y; values meeting or exceeding it are tagged N.

Observe how each entry below is paired with its result.
# compound, categoryLabel
measured = [
    ("COc1ccc(S(=O)(=O)Cc2nc(-c3cccc(Cl)c3)no2)cc1", "N"),
    ("Cc1noc(-c2ccc(=O)n(C(C)C(=O)NCc3cccs3)c2)n1 (stereo not given)", "Y"),
    ("O=C(C1CC(=O)N(c2n[nH]c3cccc(F)c23)C1)N1CCN(Cc2ccccc2)CC1 (stereo not given)", "Y"),
    ("COc1ccc(-c2noc(Cc3nnc(-c4cccc(F)c4)o3)n2)cc1F", "N"),
    ("CC1CCCCN1Cc1nc(-c2ccc(N(C)Cc3ccccc3)nc2)no1 (stereo not given)", "N"),
]

Given CN1C(=O)c2cccn2CC1CNC(=O)c1cc(CN2CCOCC2)on1 (stereo not given) , is recorded RP-LC retention time strictly lower than 700 s?
Y

What would you report for `CCc1ccc(CNC(=O)c2cn(C)nc2S(=O)(=O)N2CCSCC2)cc1` ?
N

What would you report for COCCCN1C(=O)CSc2c(c3ccccc3n2C)C1C(=O)NCc1ccccc1OC (stereo not given) ?
N

====

test: gradient 5% acetonitrile 3 min, to 50% in 2 min, to 85% in 15 min, held 3 min, 100 µL/min; details: column: Zorbax Extend-C18 2.1 x 50 mm; eluents: water / acetonitrile, 0.1% formic acid
Item-by-item account of RP-LC retention time
# unit: s | format: bare number

# compound, RP-LC retention time, s
measured = [
    ("CN1C(=O)c2cc(C(=O)NCc3ccccc3F)nn2CC1(C)C(=O)NC1CCCCC1 (centres undefined)", 785),
    ("COc1ccccc1-c1nnc(-c2cccc(S(=O)(=O)N3CCOCC3)c2)o1", 802),
    ("Cn1c(=O)c2nc(SCCC(=O)Nc3cc(F)cc(F)c3)n(C)c2n(C)c1=O", 751),
]

Would you kindly share the measured RP-LC retention time for COc1cc2c(cc1OC)C(C(=O)Nc1ccc(F)cc1F)C(c1cccs1)N(C)C2=O (centres undefined) ?
827

What would you report for CCOC(=O)c1ccc(NC(=O)C2C(=O)N(C)C3(C)CC2c2ccccc2O3)cc1 (centres undefined) ?
1000

What would you report for CCCCC(=O)N1CCCC(C)C1 (centres undefined) ?
878

What would you report for COc1ccc(C2Cn3nnc(-c4nc(-c5ccc(C)c(C)c5)no4)c3CO2)cc1 (centres undefined) ?
1270

What would you report for CCNC(=O)C1CCCN(C(=O)Nc2ccc(NC(=O)Nc3ccc(F)cc3)cc2)C1 (centres undefined) ?
691

What would you report for `O=C(Nc1cccc(Cl)c1)C1CCN(c2cc(N3CCCC3)ncn2)CC1` ?
714

====

Item-by-item account of RP-LC retention time
test: gradient 5% acetonitrile 3 min, to 50% in 2 min, to 85% in 15 min, held 3 min, 100 µL/min; details: column: Zorbax Extend-C18 2.1 x 50 mm; eluents: water / acetonitrile, 0.1% formic acid
# unit: s | format: bare number

Answered examples (8):
# molecule, RP-LC retention time [s]
records = [
    ("O=C(Nc1ccc(OCc2nnc(-c3ccccc3)o2)cc1)C1CCC1", 878),
    ("Cc1ccc(C)c(NC(=O)N2c3ccccc3CC2c2nc(C3CC3)no2)c1 (centres undefined)", 1060),
    ("O=C(CSc1ccc(N2CCCC(C(=O)NC3CC3)C2)nn1)NCc1cccc(C(F)(F)F)c1 (centres undefined)", 678),
    ("Cc1ccc2c(c1)NC(=O)c1cc(NC(=O)c3ccno3)ccc1O2", 719),
    ("Cn1cc(-c2nc(C(=O)N3CCN(c4ccccc4Cl)CC3)cs2)c2cccnc21", 1070),
    ("CN(C)c1ccc(C(=O)NC2CCN(c3ccc(F)cc3)C2=O)cc1 (centres undefined)", 778),
    ("COc1ccc(-c2cc(N3CCC(NC(=O)c4ccc(OC)c(OC)c4)C3)n[nH]2)cc1 (centres undefined)", 655),
    ("Cc1ccc(-c2ccc(=O)n(CCc3nc(-c4ccc5c(c4)OCO5)no3)n2)cc1", 711),
]

Would you kindly share the measured RP-LC retention time for `CCN1C(=O)C2(CCN(S(=O)(=O)c3cc(F)ccc3OC)CC2)c2ccccc21` ?
1030

====

test: gradient 5% acetonitrile 3 min, to 50% in 2 min, to 85% in 15 min, held 3 min, 100 µL/min; conditions: column: Zorbax Extend-C18 2.1 x 50 mm; eluents: water / acetonitrile, 0.1% formic acid
Rule: RP-LC retention time under 600 s gives no, otherwise yes.

Record `CCn1cc(-c2nc(C(=O)Nc3ccc(C#N)cc3)cs2)c2cccnc21` ; criterion: RP-LC retention time no lower than 600 s. Met?
yes

What would you report for `CCc1ccc(NC(=O)Cn2c(=O)n(-c3ccc(C)cc3)c(=O)c3c2cc(C)n3C)cc1` ?
yes

What would you report for `O=S(=O)(Cc1cccc(F)c1)NCC1CCN(Cc2ccsc2)CC1` ?
no

What would you report for `CC(C)NC(=O)CCC1CCN(c2cc(NC3CC3)ncn2)CC1` ?
no

What would you report for Cc1ccc(NC(=O)N2CCCC(C)(C(=O)NCc3ccccc3C)C2)c(Cl)c1 (centres undefined) ?
yes

What would you report for `O=C(COc1ccc(Cl)cc1Cl)Nc1nnc(-c2ccncc2)o1` ?
yes

What would you report for Cc1ccc2[nH]cc(CCN3CC(C(=O)Nc4ccc(F)c(Cl)c4)CC3=O)c2c1 (centres undefined) ?
yes

What would you report for `CCCCS(=O)(=O)N1CCc2nc(-c3ccc(Cl)cc3)ncc2C1` ?
yes

What would you report for `Oc1ccc(Br)cc1CN1CCN(c2cc(-c3ccncc3)[nH]n2)CC1` ?
no

What would you report for `CCOc1ccc(-c2csc(C)n2)cc1S(=O)(=O)Nc1ccc(F)cc1` ?
yes

What would you report for `CC(=O)Nc1ccc2cc3ccc(NC(C)=O)cc3nc2c1` ?
yes

What would you report for `Cc1cc(C)c2nc(C)cc(C(=O)NCc3ccco3)c2c1` ?
yes

What would you report for `Cc1ccc(-n2nc(C)c3c(C(F)(F)F)cc(OCC(=O)NCc4ccco4)nc32)cc1` ?
yes

What would you report for `COc1ccc(-c2cc(-c3nc4c5sc6nc(C)cc(C)c6c5ncn4n3)[nH]n2)cc1OC` ?
yes

What would you report for `CSc1ccc(-c2noc(Cn3c(=O)n(CC(C)C)c(=O)c4ccccc43)n2)cc1` ?
yes

What would you report for `CCSc1nc2ccc(NS(=O)(=O)c3ccc(CC)cc3)cc2s1` ?
yes

What would you report for `Cn1c(C(=O)N(CCc2ccccc2)Cc2ccccc2)cc2c(=O)n3ccccc3nc21` ?
yes
